# target system: UniProt P49841
# Sequence (P49841 whole entry): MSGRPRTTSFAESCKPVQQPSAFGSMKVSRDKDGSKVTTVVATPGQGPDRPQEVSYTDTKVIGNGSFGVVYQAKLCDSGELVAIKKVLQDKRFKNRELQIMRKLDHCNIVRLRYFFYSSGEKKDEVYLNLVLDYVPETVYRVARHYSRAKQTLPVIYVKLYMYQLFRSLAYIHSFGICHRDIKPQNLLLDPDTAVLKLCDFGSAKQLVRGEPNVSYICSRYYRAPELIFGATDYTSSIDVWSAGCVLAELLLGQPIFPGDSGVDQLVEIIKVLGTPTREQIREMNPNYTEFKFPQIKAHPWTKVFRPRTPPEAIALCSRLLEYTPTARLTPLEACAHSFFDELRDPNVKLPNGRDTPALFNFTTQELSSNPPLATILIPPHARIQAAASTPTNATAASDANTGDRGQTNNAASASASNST
# procedure text: GSK3β in vitro assay (33P phosphorylation of phospho GS2 peptide)
# Format: biochemical
# study conditions: in vitro potency on human GSK3 beta; read-out: IC50 (μM) GSK3beta
Binary call on IC50 with cut-off 2 µM: strictly below means class 1, and equality or higher means class 0.

compound	label class
N#CC(=C1C=CNC=C1)c1ccnc(NCCc2cccnc2)n1	class 1
CCCC(C)Nc1ncc(C)c(/C(C#N)=C2/C=CC=CN2)n1 (centres unmarked)	class 1

Query: Does the reported IC50 of CNc1nc(NCCc2cccnc2)nc(/C(C#N)=C2/C=CC=CN2)n1 stay below 2 µM?
Result: class 0

Query: Does the reported IC50 of Cc1cnc(NC2CC2)nc1/C(C#N)=C1/C=CC=CN1 stay below 2 µM?
Result: class 1

Query: Does the reported IC50 of Cc1cnc(NCCc2cccnc2)nc1/C(C#N)=C1/C=CC=CN1 stay below 2 µM?
Result: class 1

====

# target system: rat JNK3 (Rattus norvegicus)
# Sequence (P49187 whole entry): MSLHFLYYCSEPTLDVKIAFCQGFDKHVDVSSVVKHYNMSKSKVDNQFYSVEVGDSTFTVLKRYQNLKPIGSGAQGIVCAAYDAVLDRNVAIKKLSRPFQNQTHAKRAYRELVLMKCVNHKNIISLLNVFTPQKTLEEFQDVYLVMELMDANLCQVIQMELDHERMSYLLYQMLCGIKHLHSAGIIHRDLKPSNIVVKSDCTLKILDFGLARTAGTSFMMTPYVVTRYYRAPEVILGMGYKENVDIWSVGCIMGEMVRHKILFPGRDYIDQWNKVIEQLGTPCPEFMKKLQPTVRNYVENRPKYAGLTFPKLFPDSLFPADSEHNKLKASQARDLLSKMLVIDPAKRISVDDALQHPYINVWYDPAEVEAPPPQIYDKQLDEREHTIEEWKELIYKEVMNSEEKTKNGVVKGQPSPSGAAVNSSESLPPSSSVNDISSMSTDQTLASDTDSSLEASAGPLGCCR
Binary call on IC50 with cut-off 300 nM: strictly below means Met, and equality or higher means Not met.

Look over these answered cases.
compound	label class
Cc1cnc(NC(C)C)nc1/C(C#N)=C1/C=CC=CN1	Not met
Cc1cnc(NCCc2ccc(N(C)C)nc2)nc1/C(C#N)=C1/C=CC=CN1	Not met
Cc1cnc(N[C@H]2CCCC[C@@H]2O)nc1/C(C#N)=C1/C=CC=CN1	Not met
Cc1cnc(Cl)nc1/C(C#N)=C1/C=CC=CN1 [Intermediate 5]	Not met

Please look at the following compound next.
Query: Does the reported IC50 of Cc1cnc(NC2CCCCC2)nc1/C(C#N)=C1/C=CC=CN1 stay below 300 nM?
Result: Met
